Test: Pharmacokinetics assay in rats
Format: in vivo
Conditions: both sexes, Sprague-Dawley, rat, plasma, po; SD rats, intragastric, 5 mg/kg; read-out: Plasma Conc. Cmax
Please use the following Cmax ranges when assigning a class: bin A = under 300 ng/mL, bin B = from 300 ng/mL up to 600 ng/mL, bin C = 600 ng/mL and over

Study these solved cases before continuing.
Record CCn1c(-c2ccc(C(F)(F)F)cc2)cc2cc(NC(=O)c3cc(CNC(=O)C(C)(C)F)cnc3C(F)F)ccc21 [Example 17] — which class?
bin A

Record Cn1c(-c2ccc(F)cc2)cc2cc(NC(=O)c3cc(CNC(=O)C(C)(C)C)ccc3Cl)ccc21 [Example 11] — which class?
bin B

Record COCCn1c(-c2ccc(C(F)(F)F)cc2)cc2cc(NC(=O)c3cc(CNC(=O)C(C)(C)F)cnc3C(F)F)ccc21 [Example 27] — which class?
bin A

Record Cn1c(-c2cccc(Cl)c2)cc2nc(NC(=O)c3cc(CNC(=O)C(C)(C)F)cnc3C(F)F)ccc21 [Example 35] — which class?
bin C

Record Cn1c(-c2cccc(Cl)c2)cc2cc(NC(=O)c3cc(CNC(=O)C(C)(C)F)cnc3C(F)F)ccc21 [Example 33] — which class?
bin B

Record CCn1c(-c2cccc(Cl)c2)cc2cc(NC(=O)c3cc(CNC(=O)C(C)(C)F)cnc3C(F)F)ccc21 [Example 20] — which class?
bin C

Record CCn1c(-c2ccc(F)cc2)cc2cc(NC(=O)c3cc(CNC(=O)C(C)(C)C)ccc3Cl)ccc21 [Example 8] — which class?
bin B

Record CCn1c(-c2cccc(Cl)c2)cc2nc(NC(=O)c3cc(CNC(=O)C(C)(C)F)cnc3C(F)F)ccc21 [Example 37] — which class?
bin C

Others:
Record CC(C)(F)C(=O)NCc1cnc(C(F)F)c(C(=O)Nc2ccc3oc(-c4cccc(C(F)(F)F)c4)cc3c2)c1 [Example 48] — which class?
bin A

Record Cn1c(-c2ccc(Cl)cc2)cc2cc(NC(=O)c3cc(CNC(=O)C(C)(C)F)cnc3C(F)F)ccc21 [Example 14] — which class?
bin A

Record Cn1c(-c2cccc(Cl)c2)cc2cc(NC(=O)c3cc(CNC(=O)C(C)(C)F)cnc3C(F)F)ncc21 [Example 36] — which class?
bin B

---

Assay: Pharmacokinetics assay in rats
Assay type: in vivo
Conditions: both sexes, Sprague-Dawley, rat, plasma, po; SD rats, intragastric, 5 mg/kg; read-out: Half-Life T½ (converted)
Examples of molecules with documented half-life follow.
Give just the numeric value; h need not be written.

Please review the following examples before continuing.
State its half-life: COCCn1c(-c2ccc(C(F)(F)F)cc2)cc2cc(NC(=O)c3cc(CNC(=O)C(C)(C)F)cnc3C(F)F)ccc21 [Example 27]
2.46

State its half-life: CCn1c(-c2cccc(Cl)c2)cc2cc(NC(=O)c3cc(CNC(=O)C(C)(C)F)cnc3C(F)F)ccc21 [Example 20]
5.94

State its half-life: CC(C)(F)C(=O)NCc1cnc(C(F)F)c(C(=O)Nc2ccc3oc(-c4cccc(C(F)(F)F)c4)cc3c2)c1 [Example 48]
2.3

State its half-life: CCn1c(-c2ccc(C(F)(F)F)cc2)cc2cc(NC(=O)c3cc(CNC(=O)C(C)(C)F)cnc3C(F)F)ccc21 [Example 17]
5.44

State its half-life: Cn1c(-c2cccc(Cl)c2)cc2nc(NC(=O)c3cc(CNC(=O)C(C)(C)F)cnc3C(F)F)ccc21 [Example 35]
11.3

Others:
State its half-life: Cn1c(-c2ccc(Cl)cc2)cc2cc(NC(=O)c3cc(CNC(=O)C(C)(C)F)cnc3C(F)F)ccc21 [Example 14]
4.15
